Tested on: CCRIS mutagenicity, Ames/micronucleus/aberration tests
Assay: CCRIS mutagenicity studies
Conditions: Test System: Ames Salmonella typhimurium; Strain/Indicator: TA98; Metabolic Activation: Rat, Liver, S9, Sodium phenobarbital and 5,6-benzoflavone (10%); Method: Preincubation
Active and inactive are the calls of the source. How the calls were made is not given here.
# valid calls are 1 = active, 0 = inactive; nothing else

For orientation, consider the following solved cases.
NCCS :: 0
OCc1c2ccccc2cc2ccccc12 :: 0
C=CC(=O)OCCO :: 0
Nc1cccc(N)c1 :: 1

Outcome logged for ClCCCl in this assay: 0

----------
System: CCRIS mutagenicity, Ames/micronucleus/aberration tests
Assay: CCRIS mutagenicity studies
Details: Test System: CHINESE HAMSTER OVARY; Strain/Indicator: CHO (HGPRT)/6-THIOGUANINE; Metabolic Activation: RAT, LIVER, S-9, AROCLOR 1254
Activity calls are given as the source filed them. The rule behind the calls is not given here.
readout: mutagenic call

[S]1[S][SbH][S][S][SbH]1 :: inactive; negative
NCCNCCO :: inactive; negative
CCN(CC)c1ccc(N=Nc2c(Cl)cc([N+](=O)[O-])cc2Cl)cc1 :: inactive; negative
NCCNCCNCCN :: inactive; negative

----------
System: CCRIS mutagenicity, Ames/micronucleus/aberration tests
Assay: CCRIS mutagenicity studies
Conditions: Test System: AMES SALMONELLA TYPHIMURIUM; Strain/Indicator: TA97; Metabolic Activation: RAT, LIVER, S-9, AROCLOR 1254; Method: STANDARD PLATE
Calls of active or inactive are those of the source. How the calls were made is not given here.
# valid calls are active, inactive; nothing else

For orientation, consider the following solved cases.
CCOC(=O)c1[nH]c2ccccc2c1N=Cc1cc(OC)c(OC)c(OC)c1 :: inactive
ClCCCl :: active
CN(C)C1Cc2cccc3cccc(c23)C1 :: inactive
CN=C1C=CC(=C(c2ccc(NC)cc2)c2ccc(N(C)C)cc2)C=C1 :: inactive
Cn1c([N+](=O)[O-])cnc1C1NC(CO)(CO)CO1 (stereo not drawn) :: active
C/C=C\c1cc(OC)c(OC)cc1OC :: inactive
O=C1CCC(N2C(=O)c3ccccc3C2=O)C(=O)N1 (stereo not drawn) :: inactive
CC(=O)N(O)c1ccc(Cl)c(Cl)c1 :: inactive
ClCBr :: active
O=c1[nH]c2c(c(=O)n1C1CCCCC1)CCC2 :: inactive

Outcome logged for CC(C)C[C@H](NC(=O)COc1cc(Cl)c(Cl)cc1Cl)C(=O)O in this assay: inactive

Outcome logged for O=C(O)c1cc(=O)c2c(OCC(O)COc3cccc4oc(C(=O)O)cc(=O)c34)cccc2o1 in this assay: inactive

Outcome logged for Cc1ccncc1 in this assay: inactive

----------
System: CCRIS mutagenicity, Ames/micronucleus/aberration tests
Test: CCRIS mutagenicity studies
Conditions: Test System: AMES SALMONELLA TYPHIMURIUM; Strain/Indicator: TA100; Metabolic Activation: RAT, LIVER, S-9, AROCLOR 1254 (30%); Method: PREINCUBATION
Activity calls are given as the source filed them. No rule for the calls is given here.
# valid calls are active, inactive; nothing else

CCN(CC)c1ccc2c(-c3ccccc3C(=O)O)c3ccc(=[N+](CC)CC)cc-3oc2c1 :: inactive

Outcome logged for CCN(N=O)C(N)=O in this assay: active

Outcome logged for ClCc1ccccc1 in this assay: inactive

Outcome logged for CC1CCCC1 in this assay: inactive

Outcome logged for CC(CCl)OP(=O)(OC(C)CCl)OC(C)CCl (stereo not drawn) in this assay: inactive

Outcome logged for COC[CH2][Hg][Cl] in this assay: inactive

Outcome logged for CCCCCCC(=O)O in this assay: inactive

Outcome logged for COc1ccc(N)cc1 in this assay: inactive

Outcome logged for CCCCC(CC)COCC1CO1 (stereo not drawn) in this assay: inactive

Outcome logged for S=c1nc[nH]c2nc[nH]c12 in this assay: inactive

Outcome logged for Cc1cccc2cccnc12 in this assay: inactive

Outcome logged for C=CC(=O)OCCCCCCOC(=O)C=C in this assay: inactive

Outcome logged for CN(C)c1ccc(N)cc1 in this assay: inactive

Outcome logged for Clc1ccc(C(Cl)(Cl)Cl)cc1Cl in this assay: active

Outcome logged for Cc1ccccc1C#N in this assay: inactive

Outcome logged for ClCBr in this assay: active

Outcome logged for Nc1ccc2ccccc2c1 in this assay: active
